Entries annotated with measured TR-FRET signal
target: MAGE-A11:PCF11 (Homo sapiens (Human), UniProt P43364); experiment: TR-FRET single point screening at 15 μM; assay type: binding; design: unit not given here; settings: single point TR-FRET screening of quinoline compounds against MAGE-A11:PCF11; 15 μM

- MOLECULE: "Clc1ccc2c(NCCCNCc3nc4ccccc4s3)ccnc2c1 [SJ000521034]"
  TR-FRET signal: 4.695
- MOLECULE: "CCCCN(CCC)CCCNc1ccnc2cc(Cl)ccc12 [SJ000357571]"
  TR-FRET signal: 12.78
- MOLECULE: "CCCN(CCCNc1ccnc2cc(Cl)ccc12)Cc1ccc[nH]1 [SJ000357445]"
  TR-FRET signal: 10.34
- MOLECULE: "CCCN(CCCNc1ccnc2cc(Cl)ccc12)Cc1cccc(C)c1 [SJ000523041]"
  TR-FRET signal: 28.55
- MOLECULE: "Fc1ccc(CN(CCCNc2ccnc3cc(Cl)ccc23)Cc2ccccc2)cc1F [SJ000361174]"
  TR-FRET signal: 27.55

* * *

target: interaction between GST-MAGEA11 MHD and FAM-PCF11_4 peptide (MAGE-A11:PCF11) (Homo sapiens (Human)); assay: TR-FRET dose response competition assay for disruption of MAGE-A11:PCF11 binding; settings: Dose response TR-FRET screening of nine scaffold groups against MAGE-A11:PCF11; read-out: consensus IC50
Sequence (P43364 218-429): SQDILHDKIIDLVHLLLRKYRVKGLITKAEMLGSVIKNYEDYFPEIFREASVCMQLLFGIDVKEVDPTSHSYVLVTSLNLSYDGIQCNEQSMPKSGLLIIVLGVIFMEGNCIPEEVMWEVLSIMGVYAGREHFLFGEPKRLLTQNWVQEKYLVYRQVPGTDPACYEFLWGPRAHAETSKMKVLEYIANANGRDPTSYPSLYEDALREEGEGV
pIC50: −log10 of the molar value.

- COMPOUND: "Clc1ccc2c(NCCCNCc3ccc4ccccc4c3)ccnc2c1 [SJ000523065-1]"
  pIC50: 4.16
- COMPOUND: "CCn1c2ccccc2c2cc(CNCCc3ccc4c(c3)OCO4)ccc21 [SJ000112461-1]"
  pIC50: 4.16
- COMPOUND: "Cc1ccc(S(=O)(=O)c2nc(-c3ccccc3Br)oc2N2CCOCC2)cc1 [SJ000185415-1]"
  pIC50: 4.16
- COMPOUND: "C=CCn1c(=O)c2c(nc(-c3ccccc3)n2C)n(C)c1=O [SJ000832270-1]"
  pIC50: 4.07
- COMPOUND: "CSc1nc2cc(-c3ccccc3)sc2c(=O)n1CCN1CCOCC1 [SJ000405932-1]"
  pIC50: 4.16
- COMPOUND: "CCc1ccc(CNCCCNc2ccnc3cc(Cl)ccc23)cc1 [SJ000521039-1]"
  pIC50: 4.16
- COMPOUND: "COc1ccc(F)cc1CNCCCNc1ccnc2cc(-c3ccc(C(C)(C)C)cc3)ccc12 [SJ000311289-1]"
  pIC50: 5.34
- COMPOUND: "FC(F)(F)c1cccc(CNCCCNc2ccnc3cc(Cl)ccc23)c1 [SJ000521024-1]"
  pIC50: 4.16
- COMPOUND: "O=C(Cn1cnc2cc(-c3ccc(Cl)cc3)sc2c1=O)NCc1ccc(F)cc1 [SJ000444020-1]"
  pIC50: 4.16

* * *

Entries annotated with measured TR-FRET signal
biological target: MAGE-A11:PCF11 (Homo sapiens (Human), UniProt P43364); assay: TR-FRET single point screening at 15 μM; assay type: binding; parameters: unit not given here; details: single point TR-FRET screening at 15 μM against MAGE-A11:PCF11
PROPERTY_LABEL: TR-FRET signal

- COMPOUND: "COc1ccc2nc3cc(Cl)ccc3c(NCCCNCc3ccccc3F)c2c1"
  REPORTED_RESULT: "−353.8"
- COMPOUND: "CCCCCCN(CCCCNc1ccnc2cc(Cl)ccc12)Cc1ccccc1"
  REPORTED_RESULT: 23.58
- COMPOUND: "Fc1ccc(CN(CCCCNc2ccnc3cc(Cl)ccc23)Cc2ccccc2)cc1F"
  REPORTED_RESULT: 26.09
- COMPOUND: "Clc1ccc2c(NCCCCN(CCOCc3ccccc3)Cc3ccccc3)ccnc2c1"
  REPORTED_RESULT: "−15.92"
- COMPOUND: "CCCCCCNCCCNc1c2ccc(Cl)cc2nc2ccc(OC)cc12"
  REPORTED_RESULT: "−281.7"
- COMPOUND: "CCc1ccc2ncc(S(=O)(=O)c3ccc(C)c(C)c3)c(N3CCN(CC)CC3)c2c1"
  REPORTED_RESULT: "−4.712"
- COMPOUND: "Cc1ccc(S(=O)(=O)c2cnc3ccccc3c2N2CCN(c3ccccc3)CC2)cc1"
  REPORTED_RESULT: "−6.567"
- COMPOUND: "COc1ccc2ncc(S(=O)(=O)c3ccccc3)c(N3CCN(c4ccccc4F)CC3)c2c1"
  REPORTED_RESULT: "−252.5"
- COMPOUND: "Clc1ccc2c(NCCCCN(Cc3ccccc3)Cc3ccco3)ccnc2c1"
  REPORTED_RESULT: 12.05
- COMPOUND: "CCOC(=O)c1cnc2c(Cl)cccc2c1NCCN1CCOCC1"
  REPORTED_RESULT: "−6.529"
- COMPOUND: "COc1ccc(N2CCN(c3c(S(=O)(=O)c4ccccc4)cnc4ccc(Cl)cc34)CC2)cc1"
  REPORTED_RESULT: "−17.94"
- COMPOUND: "CCOc1ccc2ncc(S(=O)(=O)c3ccc(C)cc3)c(N3CCN(c4ccc(F)cc4)CC3)c2c1"
  REPORTED_RESULT: "−11.07"
- COMPOUND: "COc1ccc2nc3cc(Cl)ccc3c(NCCCNCc3ccc(OC(F)(F)F)cc3)c2c1"
  REPORTED_RESULT: "−201"
- COMPOUND: "CCCN(CCCNc1c2ccc(Cl)cc2nc2ccc(OC)cc12)Cc1cccc2c1OCO2"
  REPORTED_RESULT: "−108"
- COMPOUND: "COc1ccc2ncc(S(=O)(=O)c3ccc(C)c(C)c3)c(N3CCN(C)CC3)c2c1"
  REPORTED_RESULT: "−8.554"
- COMPOUND: "Cc1ccc(C)c(CN(CCCCNc2ccnc3cc(Cl)ccc23)Cc2ccccc2)c1"
  REPORTED_RESULT: 32.65
- COMPOUND: "Cc1ccc(S(=O)(=O)c2cnc3ccc(F)cc3c2N2CCN(c3ccccc3)CC2)cc1C"
  REPORTED_RESULT: "−16.9"
- COMPOUND: "CC(Nc1c2ccccc2nc2ccccc12)C(=O)NC(CC(N)=O)C(=O)O (centres unmarked)"
  REPORTED_RESULT: 22.71
- COMPOUND: "CCCN(CCCNc1c2ccc(Cl)cc2nc2ccc(OC)cc12)CC(CC)CC"
  REPORTED_RESULT: "−160.3"
- COMPOUND: "COc1ccc(N2CCN(c3c(S(=O)(=O)c4ccc(Cl)cc4)cnc4ccc(C)cc34)CC2)cc1"
  REPORTED_RESULT: "−3.122"
- COMPOUND: "CCc1ccc2ncc(S(=O)(=O)c3ccc(OC)cc3)c(N3CCN(c4ccccc4)CC3)c2c1"
  REPORTED_RESULT: "−2.791"
- COMPOUND: "COC(=O)CN1CCN(c2cc(C)nc3ccccc23)C(C)C1=O (centres unmarked)"
  REPORTED_RESULT: 3.503
- COMPOUND: "CCN1CCN(c2c(S(=O)(=O)c3ccc(C)c(C)c3)cnc3ccc(F)cc23)CC1"
  REPORTED_RESULT: 1.118

* * *

target: MAGE-A11:PCF11 (Homo sapiens (Human), UniProt P43364); experiment: TR-FRET single point screening at 15 μM; type: binding; set-up: unit not given here; details: single point TR-FRET screening of quinoline compounds against MAGE-A11:PCF11; 15 μM

- COMPOUND: "Clc1ccc2c(NCCCN(Cc3ccccc3)Cc3ccc(Br)o3)ccnc2c1 [SJ000312671]"
  TR-FRET signal: "−1.797"
- COMPOUND: "Cn1ccnc1CNCCCNc1ccnc2cc(Cl)ccc12 [SJ000521040]"
  TR-FRET signal: 1.449
- COMPOUND: "CCOC(=O)c1cnc2ccc(C(=O)OC)cc2c1NCCCN1CCOCC1 [SJ000279665]"
  TR-FRET signal: 10.71
- COMPOUND: "CCCN(CCCNc1c2ccc(Cl)cc2nc2ccc(OC)cc12)Cc1ccc(Br)s1 [SJ000520924]"
  TR-FRET signal: "−56.45"
- COMPOUND: "CCCN(CCCNc1ccnc2cc(C(F)(F)F)ccc12)Cc1ccc(C)o1 [SJ000361261]"
  TR-FRET signal: 23.91
- COMPOUND: "COc1cc(Cc2ccc3c(NCCCNCc4ccco4)ccnc3c2)cc(OC)c1 [SJ000311310]"
  TR-FRET signal: 23.79
- COMPOUND: "O=[N+]([O-])c1ccc(CNCCCNc2ccnc3cc(Cl)ccc23)s1 [SJ000520912]"
  TR-FRET signal: 6.284
- COMPOUND: "COc1ccc(Oc2ccc3c(NCCCNCc4ccco4)ccnc3c2)cc1 [SJ000311218]"
  TR-FRET signal: 36.25
